B1: library; a variant is named by its letters at N, in order (parent)
chain: AATGTTGTTGATGCAACCATAAAGTGATATTTAATAATTATTTATAATCAGCAACTTAACCACAAAACAACCATATATTGATATNTCACAAAACAACCATAANTTGATATTTTTGTGAATCGAGTATTTCAGCAAAACTACTGCAGTAAGAA

# Variants of: B1
# measurement description: relative integration efficiency (T-LR orientation) vs wild-type transposon end (log2 (normalized fold change)); transposon end mutated: left end; higher = more efficient transposition
# test conditions: with VchCAST RNA-guided transposition machinery (E. coli BL21(DE3) host, lacZ target)
Give relative integration efficiency (log2) for every item shown.
Answers are plain numbers.

mutant name	relative integration efficiency (log2)
TG T76A A77G C87T	0.266
TA A22T G24T T31C A33C T76A T78A T84A C87A A96C T110A T113A	-0.768
CG T86G	0.0399

Could I get relative integration efficiency (log2) for every one of these entries?
1. CG T45G A46C
2. CG T86G C87A
3. CG A19T T20A A21T A22T
4. CG A27T A81T A107T
5. CG T78G
6. CG A66G
7. TA G24A T30A A70C T76A T86G A96C T110A T113A
8. TA G24A T30A A70C T76A T84A C87A T104G T113A

[0.396, -0.424, -1.03, -2.46, 0.198, -0.258, 0.0588, 0.182]

So what does the record say about relative integration efficiency (log2) for CG A65T ?
0.125

Data origin: the supplement of paper PMC10201428
